Measured ka, listed per entry for reference.
- measured on: T1, His9-hMSR1 (human MSR1 extracellular domain) (Homo sapiens, UniProt P21757)
- T1 construct: human MSR1 extracellular domain expressed with a N-terminal nonahistidine tag; His9 (nonahistidine) (N); purchased R&D Systems 2708-MS
- T1 sequence (P21757 77-451 limits assumed): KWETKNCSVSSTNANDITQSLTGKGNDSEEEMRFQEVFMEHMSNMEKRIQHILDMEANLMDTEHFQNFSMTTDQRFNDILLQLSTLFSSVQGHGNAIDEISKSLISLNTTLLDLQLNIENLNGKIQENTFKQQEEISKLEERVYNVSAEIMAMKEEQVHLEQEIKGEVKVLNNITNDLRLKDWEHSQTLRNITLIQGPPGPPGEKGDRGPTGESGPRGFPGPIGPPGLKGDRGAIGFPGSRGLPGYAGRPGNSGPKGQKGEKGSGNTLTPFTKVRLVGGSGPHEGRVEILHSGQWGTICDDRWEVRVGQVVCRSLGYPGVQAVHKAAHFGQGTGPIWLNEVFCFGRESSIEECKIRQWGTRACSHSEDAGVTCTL
- assay notes: Biacore surface plasmon resonance binding kinetics of anti-MSR1 mAbs, antibody-capture format
- condition parameters: 25° C.; analyte His9-hMSR1; antibody-capture format; NB = no binding observed
- Procedure: Binding affinities and kinetic constants of human anti-MSR1 antibodies for different MSR1 reagents were determined by real-time surface plasmon resonance (Biacore 4000). […] The association rate (ka) and dissociation rate (kd) were determined by fitting the real-time binding sensorgrams to a 1:1 binding model with mass transport limitation using Scrubber 2.0c curve-fitting software. […]
parameter measured: ka (M⁻¹ s⁻¹)

molecule="H1H27739P-N297Q: anti-MSR1 antibody \"made with an N297Q single point mutation in human Fcγ portion\" (antibody, V domains shown) VH: EVQLVESGGGLVQPGGSLRLSCTASGFTFSSYAMSWVRQAPGKGLEWVSAISGTGSSTYFTDSVKGRFAISRDNSKNTLYLQMNSLRAEDTAVYYCAKDGEWLSTVTLFDYWGQGTLVTVSS VL: EIVMTQSPATLSVSPGERATLSCRASQSVSSNLAWYQQKPGQAPRLLIYGASTRATGIPARFSGSGSGTDFTLTISSLQSEDFALYYCQQYFIWPPHPTFGPGTKVDIKR" val=375000
molecule="H1H27754P-N297Q: one of \"Twelve anti-MSR1 antibodies\"; \"made with an N297Q single point mutation in human Fcγ portion\" (antibody, V domains shown) VH: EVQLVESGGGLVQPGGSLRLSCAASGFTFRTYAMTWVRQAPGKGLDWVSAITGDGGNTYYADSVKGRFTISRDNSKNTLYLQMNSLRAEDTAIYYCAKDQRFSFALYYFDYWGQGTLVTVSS VL: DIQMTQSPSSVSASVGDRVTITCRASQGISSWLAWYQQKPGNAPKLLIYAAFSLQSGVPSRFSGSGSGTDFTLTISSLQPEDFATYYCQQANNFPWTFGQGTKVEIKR" val=290000
molecule="H1H21231N-N297Q: modified version of \"21231N (H1H21231N-N297Q) anti-MSR1 antibodies\" with \"a N297Q single point mutation\" (antibody, V domains shown) VH: EVQLVESGGGLVQPGGSLRLSCAASGFTFSDHYMDWVRQAPGKGLEWVGRTRNKANSHTTEYTASVTGRFTISRDDSRNSLYLQMNSLKTEDTAVYYCVRAGIIGTLFDYWGQGTLVTVSS VL: DIQMTQFPSSLSASVGDRVTITCRASQSISSFLNWFQQKPGKAPKFLIYAASSLQSGVPSRFSGSGSGTDFTLTISSLQPEDFATYYCQQSYSSPPITFGQGTRLEIKR" val=399000
molecule="H1H27729P-N297Q: anti-MSR1 antibody \"made with an N297Q single point mutation in human Fcγ portion\" (antibody, V domains shown) VH: QVQLVESGGGLVKPGGSLRLSCAASGFIFSDYYMSWIRQAPGKGLEWVSYISSSGTTIYGDSVKGRFTMSRDNAKNSLYLQMNSLRAEDTAVYYCARNYALFDYWGQGTLVTVSS VL: DIQMTQSPSSLSASVGDRVTITCQASQDISKYLNWYQQKPGKAPKLLIYYTSNLETGVPSRFSGSGSGTDFTFTISSLQPEDIATYYCHQSDYLPFTFGPGTKVDIKR" val=197000
